Origin of values: patent US20060122240A1

biological target: hRUP38 (Homo sapiens); construct: expressed in transfected cells; assay: Adenylyl cyclase / cAMP Whole Cell assay in CHO cells stably transfected with hRUP38; format: cell-based; conditions: average of seven (7) trials; read-out: hRUP38 (EC50) cAMP Whole Cell
Sequence (P49019 whole entry K94N/T173P/F198L/H253R/I317M/I346M): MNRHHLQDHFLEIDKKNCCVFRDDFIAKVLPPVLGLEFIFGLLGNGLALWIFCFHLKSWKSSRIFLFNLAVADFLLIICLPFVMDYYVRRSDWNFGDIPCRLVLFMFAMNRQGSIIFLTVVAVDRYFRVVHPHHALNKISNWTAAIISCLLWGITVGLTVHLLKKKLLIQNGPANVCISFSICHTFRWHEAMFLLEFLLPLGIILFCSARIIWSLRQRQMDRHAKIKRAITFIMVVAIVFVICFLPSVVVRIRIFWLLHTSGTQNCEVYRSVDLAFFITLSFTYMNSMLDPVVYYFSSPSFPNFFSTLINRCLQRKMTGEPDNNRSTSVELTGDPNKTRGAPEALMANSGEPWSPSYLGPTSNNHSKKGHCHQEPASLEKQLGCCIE
Readout Kind: pEC50
Note: pEC50 values are expressed as the negative base-10 logarithm of concentration in M.

Sure, the documented pEC50 for CC(C)n1nnc2cc(C(=O)O)ccc21 is 6.41
